src = PubChem BioAssay AID743107

Target: Muscarinic acetylcholine receptor M5 (Homo sapiens) (UniProt P08912)
Sequence (P08912 whole entry, looked up): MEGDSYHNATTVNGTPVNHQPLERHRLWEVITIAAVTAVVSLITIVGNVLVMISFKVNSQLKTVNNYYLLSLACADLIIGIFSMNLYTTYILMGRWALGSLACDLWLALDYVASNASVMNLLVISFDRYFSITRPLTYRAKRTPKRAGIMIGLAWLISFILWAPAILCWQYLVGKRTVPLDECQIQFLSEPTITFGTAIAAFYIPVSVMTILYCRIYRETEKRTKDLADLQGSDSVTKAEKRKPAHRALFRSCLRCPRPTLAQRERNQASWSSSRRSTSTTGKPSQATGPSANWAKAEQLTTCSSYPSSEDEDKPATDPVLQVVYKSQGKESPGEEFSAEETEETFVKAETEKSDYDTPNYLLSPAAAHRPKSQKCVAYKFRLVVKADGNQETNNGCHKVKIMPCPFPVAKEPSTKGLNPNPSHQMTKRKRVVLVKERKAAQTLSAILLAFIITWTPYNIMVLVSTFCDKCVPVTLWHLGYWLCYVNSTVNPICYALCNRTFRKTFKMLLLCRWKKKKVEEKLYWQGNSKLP
Test: human M5 muscarinic receptor antagonists, cell-based, single concentration, CHO-K1 hM5, ACh EC80 (AID 743107)
Details: CHO-K1 hM5, calcium flux, at 10 µM, stronger effect = lower value
Activity calls are given as the source filed them.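 The calls were made as follows: active = compound leaving under 60% of the human M5 receptor calcium signal; inactive = the rest.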
Give measured activity remaining for each item. Keep answers brief.

Quick one: give measured activity remaining for COc1ccccc1C(=O)NCc1cc(C(=O)N(C)C(C)c2ccccn2)no1 (centres undefined)
76.4% (inactive)

Quick one: give measured activity remaining for CC(c1ccccn1)N(C)C(=O)c1cc(COc2ccccc2Cl)on1 (centres undefined)
77.2% (inactive)

Quick one: give measured activity remaining for CC(=O)c1cccc(OCc2cc(C(=O)N3CCc4ccccc4C3C)no2)c1 (centres undefined)
81.5% (inactive)

Quick one: give measured activity remaining for COC(=O)c1cccc(OCc2cc(C(=O)N(C)C(C)c3ccccn3)no2)c1 (centres undefined)
67.3% (inactive)
